The measured values listed here are drawn from the kinase profiling compilation of Christmann-Franck et al. (2016).

// values below are reported residual activity
molecular target: EPHA8 (human); assay: radiometric filter-binding kinase assay, Kinase HotSpot; details: compound 0.5 µM; ATP 10 µM

COMPOUND: Nc1n[nH]c2nnc(-c3c(-c4ccccc4)nn4ccccc34)cc12
residual activity [%]: 100
//
COMPOUND: O=c1cc(N2CCNCC2)oc2c(-c3ccccc3)cccc12
residual activity [%]: 98.1
//
COMPOUND: O=C1Nc2ccccc2/C1=C\c1c(Cl)[nH]c2ccccc12
residual activity [%]: 103
//
COMPOUND: Cc1ccc(NC(=O)c2ccc(CN3CCN(C)CC3)cc2)cc1Nc1nc(-c2cccnc2)cs1
residual activity [%]: 93.1
//
COMPOUND: Nc1nc(Nc2ccc(S(N)(=O)=O)cc2)nn1C(=S)Nc1c(F)cccc1F
residual activity [%]: 98.5
//
COMPOUND: CCCNC(=O)Nc1ccc(Oc2ncnc3cc(OC)c(OC)cc23)cc1Cl
residual activity [%]: 105
//
COMPOUND: CS(=O)c1ccc(-c2nc(-c3ccc(F)cc3)c(-c3ccncc3)[nH]2)cc1 (stereo unspecified)
residual activity [%]: 101
//
COMPOUND: O=c1cc(-c2cccc3c2Sc2ccccc2S3)oc(N2CCOCC2)c1
residual activity [%]: 110
//
COMPOUND: COc1cc2ncnc(Nc3ccc(F)c(Cl)c3)c2cc1OCCCN1CCOCC1
residual activity [%]: 84.5
//
COMPOUND: CC(C)(C)c1nc2c3ccc(F)cc3c3c(=O)[nH]ccc3c2[nH]1
residual activity [%]: 105
//
COMPOUND: O=C(Nc1ccc(Cl)cc1)c1ccccc1NCc1ccncc1
residual activity [%]: 87.6
//
COMPOUND: O=C1Cc2c([nH]c3ccc([N+](=O)[O-])cc23)-c2ccccc2N1
residual activity [%]: 104
//
COMPOUND: CC(C)[C@H](CO)Nc1nc(Nc2cccc(Cl)c2)c2ncn(C(C)C)c2n1
residual activity [%]: 102
//
COMPOUND: CC(C)n1cnc2c(Nc3cccc(Cl)c3)nc(NCCO)nc21
residual activity [%]: 98.2
//
COMPOUND: NC(=O)c1ccc(N(C(N)=O)c2c(F)cccc2F)nc1-c1ccc(F)cc1F
residual activity [%]: 98.7
//
COMPOUND: C#Cc1cccc(Nc2ncnc3cc(OCCOC)c(OCCOC)cc23)c1
residual activity [%]: 89.7
//
COMPOUND: Cc1cc2ncc(-c3ccccc3)nc2cc1C
residual activity [%]: 94.5
//
COMPOUND: CSc1nc(-c2ccc(F)cc2)c(-c2ccnc(NC(C)c3ccccc3)c2)[nH]1 (stereo unspecified)
residual activity [%]: 82.2
//
COMPOUND: COc1ccc(-c2cnc3c(-c4ccsc4)cnn3c2)cc1
residual activity [%]: 90.3
//
COMPOUND: Oc1ccc(-c2nc(-c3ccc(F)cc3)c(-c3ccncc3)[nH]2)cc1
residual activity [%]: 93.6
//
COMPOUND: O=C1Nc2cc(Br)ccc2/C1=C1/Nc2ccccc2/C1=N\O
residual activity [%]: 97.6
//
COMPOUND: Clc1ccc(Nc2nnc(Cc3ccncc3)c3ccccc23)cc1
residual activity [%]: 100
//
COMPOUND: O=C(NC(NC(=S)Nc1ccc(F)c([N+](=O)[O-])c1)C(Cl)(Cl)Cl)C(c1ccccc1)c1ccccc1 (stereo unspecified)
residual activity [%]: 104
//
COMPOUND: Nc1nc(Nc2ccc(S(N)(=O)=O)cc2)nn1C(=O)c1c(F)cccc1F
residual activity [%]: 109
//
COMPOUND: CCN1/C(=C/C(C)=O)Sc2ccc(OC)cc21
residual activity [%]: 98.5
//
COMPOUND: COc1cc2nccc(Oc3ccc(NC(=S)NC(=O)c4ccccc4C)cc3)c2cc1OC
residual activity [%]: 84.1

---

molecular target: NEK2 (human); assay: radiometric filter-binding kinase assay, Kinase HotSpot; conditions: compound 0.5 µM; ATP 10 µM
READOUT NAME: residual activity (%)

COMPOUND: Cc1ccc(NC(=O)c2ccc(CN3CCN(C)CC3)cc2)cc1Nc1nc(-c2cccnc2)cs1
REPORTED RESULT: 96.7
//
COMPOUND: Nc1nc(Nc2ccc(S(N)(=O)=O)cc2)nn1C(=S)Nc1c(F)cccc1F
REPORTED RESULT: 98.3
//
COMPOUND: Nc1nc(Nc2ccc(S(N)(=O)=O)cc2)nn1C(=O)c1c(F)cccc1F
REPORTED RESULT: 94.8
//
COMPOUND: O=C1Nc2cc(Br)ccc2/C1=C1/Nc2ccccc2/C1=N\O
REPORTED RESULT: 95.5
//
COMPOUND: COc1cc2nccc(Oc3ccc(NC(=S)NC(=O)c4ccccc4C)cc3)c2cc1OC
REPORTED RESULT: 89

---

target: ULK2 (human); assay: radiometric filter-binding kinase assay, Kinase HotSpot; settings: compound 0.5 µM; ATP 10 µM

MOLECULE: CC(C)n1cnc2c(Nc3cccc(Cl)c3)nc(NCCO)nc21
MEASURE UNIT: %
residual activity: 89

MOLECULE: Cc1cc2ncc(-c3ccccc3)nc2cc1C
MEASURE UNIT: %
residual activity: 108

MOLECULE: COc1cc2nccc(Oc3ccc(NC(=S)NC(=O)c4ccccc4C)cc3)c2cc1OC
MEASURE UNIT: %
residual activity: 88.8

MOLECULE: Nc1nc(Nc2ccc(S(N)(=O)=O)cc2)nn1C(=O)c1c(F)cccc1F
MEASURE UNIT: %
residual activity: 102

MOLECULE: O=C1Cc2c([nH]c3ccc([N+](=O)[O-])cc23)-c2ccccc2N1
MEASURE UNIT: %
residual activity: 72.7

MOLECULE: COc1ccc(-c2cnc3c(-c4ccsc4)cnn3c2)cc1
MEASURE UNIT: %
residual activity: 103

MOLECULE: COc1cc2ncnc(Nc3ccc(F)c(Cl)c3)c2cc1OCCCN1CCOCC1
MEASURE UNIT: %
residual activity: 104

MOLECULE: Nc1n[nH]c2nnc(-c3c(-c4ccccc4)nn4ccccc34)cc12
MEASURE UNIT: %
residual activity: 100

MOLECULE: O=c1cc(N2CCNCC2)oc2c(-c3ccccc3)cccc12
MEASURE UNIT: %
residual activity: 108

MOLECULE: CCCNC(=O)Nc1ccc(Oc2ncnc3cc(OC)c(OC)cc23)cc1Cl
MEASURE UNIT: %
residual activity: 89.2

MOLECULE: NC(=O)c1ccc(N(C(N)=O)c2c(F)cccc2F)nc1-c1ccc(F)cc1F
MEASURE UNIT: %
residual activity: 101

MOLECULE: C#Cc1cccc(Nc2ncnc3cc(OCCOC)c(OCCOC)cc23)c1
MEASURE UNIT: %
residual activity: 98.7

MOLECULE: Clc1ccc(Nc2nnc(Cc3ccncc3)c3ccccc23)cc1
MEASURE UNIT: %
residual activity: 99.9

MOLECULE: Cc1ccc(NC(=O)c2ccc(CN3CCN(C)CC3)cc2)cc1Nc1nc(-c2cccnc2)cs1
MEASURE UNIT: %
residual activity: 103

MOLECULE: Nc1nc(Nc2ccc(S(N)(=O)=O)cc2)nn1C(=S)Nc1c(F)cccc1F
MEASURE UNIT: %
residual activity: 4.73

MOLECULE: CSc1nc(-c2ccc(F)cc2)c(-c2ccnc(NC(C)c3ccccc3)c2)[nH]1 (centres undefined)
MEASURE UNIT: %
residual activity: 94.1

MOLECULE: CC(C)(C)c1nc2c3ccc(F)cc3c3c(=O)[nH]ccc3c2[nH]1
MEASURE UNIT: %
residual activity: 41.5

MOLECULE: O=C(Nc1ccc(Cl)cc1)c1ccccc1NCc1ccncc1
MEASURE UNIT: %
residual activity: 104

MOLECULE: O=C1Nc2cc(Br)ccc2/C1=C1/Nc2ccccc2/C1=N\O
MEASURE UNIT: %
residual activity: 94

MOLECULE: O=C1Nc2ccccc2/C1=C\c1c(Cl)[nH]c2ccccc12
MEASURE UNIT: %
residual activity: 99.7

MOLECULE: CS(=O)c1ccc(-c2nc(-c3ccc(F)cc3)c(-c3ccncc3)[nH]2)cc1 (centres undefined)
MEASURE UNIT: %
residual activity: 83.5

MOLECULE: O=c1cc(-c2cccc3c2Sc2ccccc2S3)oc(N2CCOCC2)c1
MEASURE UNIT: %
residual activity: 123

MOLECULE: CC(C)[C@H](CO)Nc1nc(Nc2cccc(Cl)c2)c2ncn(C(C)C)c2n1
MEASURE UNIT: %
residual activity: 97.7

MOLECULE: Oc1ccc(-c2nc(-c3ccc(F)cc3)c(-c3ccncc3)[nH]2)cc1
MEASURE UNIT: %
residual activity: 97.3

---

target: ROCK2 (human) (UniProt O75116); test: radiometric filter-binding kinase assay, Kinase HotSpot; settings: compound 0.5 µM; ATP 10 µM
Sequence (O75116 whole entry, looked up): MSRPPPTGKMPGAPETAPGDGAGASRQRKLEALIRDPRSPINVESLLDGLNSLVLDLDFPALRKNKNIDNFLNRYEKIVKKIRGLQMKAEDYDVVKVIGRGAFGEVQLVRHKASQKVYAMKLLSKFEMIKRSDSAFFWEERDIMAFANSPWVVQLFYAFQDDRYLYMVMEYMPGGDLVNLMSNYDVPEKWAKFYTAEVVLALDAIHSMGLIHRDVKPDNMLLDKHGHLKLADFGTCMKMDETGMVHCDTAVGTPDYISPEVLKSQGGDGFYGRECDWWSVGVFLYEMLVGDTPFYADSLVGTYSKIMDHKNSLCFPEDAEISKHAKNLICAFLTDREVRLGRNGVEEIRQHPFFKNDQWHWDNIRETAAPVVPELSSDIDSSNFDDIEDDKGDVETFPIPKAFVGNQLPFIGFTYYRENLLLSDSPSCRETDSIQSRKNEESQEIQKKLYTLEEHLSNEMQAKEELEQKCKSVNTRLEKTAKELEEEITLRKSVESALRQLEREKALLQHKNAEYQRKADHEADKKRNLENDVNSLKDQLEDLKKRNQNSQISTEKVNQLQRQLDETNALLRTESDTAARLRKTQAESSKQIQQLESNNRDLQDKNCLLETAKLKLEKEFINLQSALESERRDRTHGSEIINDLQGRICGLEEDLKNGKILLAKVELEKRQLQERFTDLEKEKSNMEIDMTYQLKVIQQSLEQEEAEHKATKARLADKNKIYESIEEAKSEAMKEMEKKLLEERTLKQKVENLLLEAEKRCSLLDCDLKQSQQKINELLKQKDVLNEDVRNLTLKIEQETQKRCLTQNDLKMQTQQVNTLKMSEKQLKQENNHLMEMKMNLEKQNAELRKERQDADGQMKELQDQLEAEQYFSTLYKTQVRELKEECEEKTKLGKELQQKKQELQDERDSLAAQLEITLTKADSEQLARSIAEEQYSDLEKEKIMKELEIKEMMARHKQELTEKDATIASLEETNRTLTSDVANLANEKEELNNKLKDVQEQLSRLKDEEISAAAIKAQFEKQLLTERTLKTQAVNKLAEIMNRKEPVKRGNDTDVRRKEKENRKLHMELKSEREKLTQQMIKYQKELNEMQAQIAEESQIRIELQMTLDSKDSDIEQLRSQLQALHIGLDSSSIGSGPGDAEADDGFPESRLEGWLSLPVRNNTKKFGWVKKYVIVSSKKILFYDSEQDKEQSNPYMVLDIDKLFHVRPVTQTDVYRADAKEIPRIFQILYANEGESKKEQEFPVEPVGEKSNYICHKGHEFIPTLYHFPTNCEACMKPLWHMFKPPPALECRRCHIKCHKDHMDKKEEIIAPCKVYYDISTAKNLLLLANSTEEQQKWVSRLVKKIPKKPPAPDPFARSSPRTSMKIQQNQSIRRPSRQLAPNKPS
Listed below: residual activity values for each entry.

COMPOUND: C#Cc1cccc(Nc2ncnc3cc(OCCOC)c(OCCOC)cc23)c1
TARGET OR SYSTEM: ROCK2 (human) (UniProt O75116)
residual activity: 91%
--
COMPOUND: Cc1ccc(NC(=O)c2ccc(CN3CCN(C)CC3)cc2)cc1Nc1nc(-c2cccnc2)cs1
TARGET OR SYSTEM: ROCK2 (human) (UniProt O75116)
residual activity: 95.1%
--
COMPOUND: O=C(NC(NC(=S)Nc1ccc(F)c([N+](=O)[O-])c1)C(Cl)(Cl)Cl)C(c1ccccc1)c1ccccc1 (stereo unspecified)
TARGET OR SYSTEM: ROCK2 (human) (UniProt O75116)
residual activity: 109%
--
COMPOUND: Nc1nc(Nc2ccc(S(N)(=O)=O)cc2)nn1C(=O)c1c(F)cccc1F
TARGET OR SYSTEM: ROCK2 (human) (UniProt O75116)
residual activity: 18.6%
--
COMPOUND: COc1ccc(-c2cnc3c(-c4ccsc4)cnn3c2)cc1
TARGET OR SYSTEM: ROCK2 (human) (UniProt O75116)
residual activity: 90.4%
--
COMPOUND: CC(C)(C)c1nc2c3ccc(F)cc3c3c(=O)[nH]ccc3c2[nH]1
TARGET OR SYSTEM: ROCK2 (human) (UniProt O75116)
residual activity: 70.7%
--
COMPOUND: O=C1Nc2ccccc2/C1=C\c1c(Cl)[nH]c2ccccc12
TARGET OR SYSTEM: ROCK2 (human) (UniProt O75116)
residual activity: 90.2%
--
COMPOUND: O=c1cc(N2CCNCC2)oc2c(-c3ccccc3)cccc12
TARGET OR SYSTEM: ROCK2 (human) (UniProt O75116)
residual activity: 87.5%
--
COMPOUND: Clc1ccc(Nc2nnc(Cc3ccncc3)c3ccccc23)cc1
TARGET OR SYSTEM: ROCK2 (human) (UniProt O75116)
residual activity: 95.4%
--
COMPOUND: O=C(Nc1ccc(Cl)cc1)c1ccccc1NCc1ccncc1
TARGET OR SYSTEM: ROCK2 (human) (UniProt O75116)
residual activity: 93.8%
--
COMPOUND: CC(C)n1cnc2c(Nc3cccc(Cl)c3)nc(NCCO)nc21
TARGET OR SYSTEM: ROCK2 (human) (UniProt O75116)
residual activity: 97.5%
--
COMPOUND: Oc1ccc(-c2nc(-c3ccc(F)cc3)c(-c3ccncc3)[nH]2)cc1
TARGET OR SYSTEM: ROCK2 (human) (UniProt O75116)
residual activity: 93.6%
--
COMPOUND: CCCNC(=O)Nc1ccc(Oc2ncnc3cc(OC)c(OC)cc23)cc1Cl
TARGET OR SYSTEM: ROCK2 (human) (UniProt O75116)
residual activity: 97.7%
--
COMPOUND: Nc1n[nH]c2nnc(-c3c(-c4ccccc4)nn4ccccc34)cc12
TARGET OR SYSTEM: ROCK2 (human) (UniProt O75116)
residual activity: 89.6%
--
COMPOUND: CS(=O)c1ccc(-c2nc(-c3ccc(F)cc3)c(-c3ccncc3)[nH]2)cc1 (stereo unspecified)
TARGET OR SYSTEM: ROCK2 (human) (UniProt O75116)
residual activity: 98.4%
--
COMPOUND: COc1cc2ncnc(Nc3ccc(F)c(Cl)c3)c2cc1OCCCN1CCOCC1
TARGET OR SYSTEM: ROCK2 (human) (UniProt O75116)
residual activity: 90.8%
--
COMPOUND: Nc1nc(Nc2ccc(S(N)(=O)=O)cc2)nn1C(=S)Nc1c(F)cccc1F
TARGET OR SYSTEM: ROCK2 (human) (UniProt O75116)
residual activity: 6.22%
--
COMPOUND: O=C1Cc2c([nH]c3ccc([N+](=O)[O-])cc23)-c2ccccc2N1
TARGET OR SYSTEM: ROCK2 (human) (UniProt O75116)
residual activity: 82%
--
COMPOUND: COc1cc2nccc(Oc3ccc(NC(=S)NC(=O)c4ccccc4C)cc3)c2cc1OC
TARGET OR SYSTEM: ROCK2 (human) (UniProt O75116)
residual activity: 92.5%
--
COMPOUND: NC(=O)c1ccc(N(C(N)=O)c2c(F)cccc2F)nc1-c1ccc(F)cc1F
TARGET OR SYSTEM: ROCK2 (human) (UniProt O75116)
residual activity: 97.7%
--
COMPOUND: CCN1/C(=C/C(C)=O)Sc2ccc(OC)cc21
TARGET OR SYSTEM: ROCK2 (human) (UniProt O75116)
residual activity: 90.7%
--
COMPOUND: O=C1Nc2cc(Br)ccc2/C1=C1/Nc2ccccc2/C1=N\O
TARGET OR SYSTEM: ROCK2 (human) (UniProt O75116)
residual activity: 92.1%
--
COMPOUND: CC(C)[C@H](CO)Nc1nc(Nc2cccc(Cl)c2)c2ncn(C(C)C)c2n1
TARGET OR SYSTEM: ROCK2 (human) (UniProt O75116)
residual activity: 100%
--
COMPOUND: CSc1nc(-c2ccc(F)cc2)c(-c2ccnc(NC(C)c3ccccc3)c2)[nH]1 (stereo unspecified)
TARGET OR SYSTEM: ROCK2 (human) (UniProt O75116)
residual activity: 95.3%
--
COMPOUND: O=c1cc(-c2cccc3c2Sc2ccccc2S3)oc(N2CCOCC2)c1
TARGET OR SYSTEM: ROCK2 (human) (UniProt O75116)
residual activity: 109%
--
COMPOUND: Cc1cc2ncc(-c3ccccc3)nc2cc1C
TARGET OR SYSTEM: ROCK2 (human) (UniProt O75116)
residual activity: 88.1%
